- measured.on: human MT2 receptors (Homo sapiens, UniProt P49286)
- Construct: expressed in transfected cells; host or cells: CHO (Chinese hamster ovary) cells, stably transfected
- Sequence (P49286 whole entry): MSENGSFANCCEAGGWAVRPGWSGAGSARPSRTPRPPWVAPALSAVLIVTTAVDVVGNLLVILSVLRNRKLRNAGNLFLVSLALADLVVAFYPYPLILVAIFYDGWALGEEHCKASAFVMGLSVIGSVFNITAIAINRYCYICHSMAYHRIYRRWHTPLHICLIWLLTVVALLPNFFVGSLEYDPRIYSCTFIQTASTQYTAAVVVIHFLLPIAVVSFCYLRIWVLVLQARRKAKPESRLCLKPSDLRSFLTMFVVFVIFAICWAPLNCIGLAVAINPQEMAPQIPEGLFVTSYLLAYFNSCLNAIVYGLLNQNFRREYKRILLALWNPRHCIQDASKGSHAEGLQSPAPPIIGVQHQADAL
- assay.overview: Binding affinity at human MT2 receptors stably transfected in CHO cells, 2-[125I]iodomelatonin
- setup.conditions: read-out: MT2 pKi (Mean ± SD) (converted)
property.measured: log10(Ki) (log10 of the value in nM)
log10 Ki, nM

Prompt: Tell us which log10(Ki) value is on record for COc1ccc2c(c1)C(C)(CCNC(C)=O)CN2Cc1ccccc1 (stereo not drawn) [8f]
Completion: 1.67

Prompt: Recall and state the measured log10(Ki) for CC(=O)NCCC1(C)CN(C)c2ccccc21 (stereo not drawn) [8a] .
Completion: 2.63

Prompt: // fetch log10(Ki) given entry CC(=O)NCCC1CN(C)c2c1ccc(C)c2C (stereo not drawn) [8l]
Completion: 2.22

Prompt: Tell me measured log10(Ki) for CC(=O)NCCC1(C)CN(Cc2ccccc2)c2ccccc21 (stereo not drawn) [8b] please.
Completion: 1.86

Prompt: Read the entry COc1ccc2c(c1)C(CCNC(C)=O)CN2Cc1ccccc1 (stereo not drawn) [8h] and write its reported log10(Ki).
Completion: 0.36

Prompt: Please indicate log10(Ki) recorded for COc1ccc2c(c1)C(C)(CCNC(C)=O)CN2C (stereo not drawn) [8e]
Completion: 2.29
